Catalogue of normalized affinity signal (average) readings, one per entry.
Target: T1, recombinant soluble human C4.4a (human, UniProt O95274 31-308)
T1 construct: recombinant, soluble, purified protein; also called hC4.4a; full length C4.4a
T1 sequence: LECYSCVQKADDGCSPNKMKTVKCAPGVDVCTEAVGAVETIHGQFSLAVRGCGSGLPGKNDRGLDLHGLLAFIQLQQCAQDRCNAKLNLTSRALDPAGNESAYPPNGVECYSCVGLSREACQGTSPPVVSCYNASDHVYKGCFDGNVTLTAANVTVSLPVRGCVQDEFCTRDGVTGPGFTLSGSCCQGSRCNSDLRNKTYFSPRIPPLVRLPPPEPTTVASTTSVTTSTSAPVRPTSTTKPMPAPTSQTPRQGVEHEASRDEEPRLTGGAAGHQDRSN
Assay: direct ELISA, Fab supernatant on coated human C4.4a, signal normalized to Fab quantity
The answer should be written as a number, with no unit following it.

{"Binder": "M31-B01 Fab HC Y102W (Fab, V domains shown, Fab with 3×HA-tag and hexa-histidine tag at the C-terminus of the heavy chain, culture supernatant) VH: EVQLLESGGGLVQPGGSLRLSCAASGFTFSNAWMSWVRQAPGKGLEWVSYISSSGSTIYYADSVKGRFTISRDNSKNTLYLQMNSLRAEDTAVYYCAREGLWAFDWWGQGTLVTVTS VL: QSVLTQPPSASGTPGQRVTISCTGSSSNIGAGYVVHWYQQLPGTAPKLLIYDNNKRPSGVPDRFSGSKSGTSASLAISGLRSEDEADYYCAAWDDRLNGPVFGGGTKLTVLG", "normalized affinity signal (average)": 1.65}
{"Binder": "wild-type Fab M31-B01 (Fab, V domains shown, Fab with 3×HA-tag and hexa-histidine tag at the C-terminus of the heavy chain, E. coli culture supernatant; also called M31-B01 (parental Fab)) VH: EVQLLESGGGLVQPGGSLRLSCAASGFTFSNAWMSWVRQAPGKGLEWVSYISSSGSTIYYADSVKGRFTISRDNSKNTLYLQMNSLRAEDTAVYYCAREGLWAFDYWGQGTLVTVTS VL: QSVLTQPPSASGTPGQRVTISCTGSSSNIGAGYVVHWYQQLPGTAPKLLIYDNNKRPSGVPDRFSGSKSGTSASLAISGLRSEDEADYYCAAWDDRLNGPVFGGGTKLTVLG", "normalized affinity signal (average)": 1.11}

Would you kindly share the measured normalized affinity signal (average) for M31-B01 Fab LC G95bR (Fab, V domains shown, Fab with 3×HA-tag and hexa-histidine tag at the C-terminus of the heavy chain, culture supernatant) VH: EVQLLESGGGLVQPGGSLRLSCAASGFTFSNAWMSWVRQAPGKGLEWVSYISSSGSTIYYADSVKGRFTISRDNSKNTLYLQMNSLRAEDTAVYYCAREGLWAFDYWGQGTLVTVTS VL: QSVLTQPPSASGTPGQRVTISCTGSSSNIGAGYVVHWYQQLPGTAPKLLIYDNNKRPSGVPDRFSGSKSGTSASLAISGLRSEDEADYYCAAWDDRLNRPVFGGGTKLTVLG ?
2.45
